- Measurement target: BSEP (Macaca fascicularis, UniProt D2CFL3)
- Sequence (D2CFL3 1-1323): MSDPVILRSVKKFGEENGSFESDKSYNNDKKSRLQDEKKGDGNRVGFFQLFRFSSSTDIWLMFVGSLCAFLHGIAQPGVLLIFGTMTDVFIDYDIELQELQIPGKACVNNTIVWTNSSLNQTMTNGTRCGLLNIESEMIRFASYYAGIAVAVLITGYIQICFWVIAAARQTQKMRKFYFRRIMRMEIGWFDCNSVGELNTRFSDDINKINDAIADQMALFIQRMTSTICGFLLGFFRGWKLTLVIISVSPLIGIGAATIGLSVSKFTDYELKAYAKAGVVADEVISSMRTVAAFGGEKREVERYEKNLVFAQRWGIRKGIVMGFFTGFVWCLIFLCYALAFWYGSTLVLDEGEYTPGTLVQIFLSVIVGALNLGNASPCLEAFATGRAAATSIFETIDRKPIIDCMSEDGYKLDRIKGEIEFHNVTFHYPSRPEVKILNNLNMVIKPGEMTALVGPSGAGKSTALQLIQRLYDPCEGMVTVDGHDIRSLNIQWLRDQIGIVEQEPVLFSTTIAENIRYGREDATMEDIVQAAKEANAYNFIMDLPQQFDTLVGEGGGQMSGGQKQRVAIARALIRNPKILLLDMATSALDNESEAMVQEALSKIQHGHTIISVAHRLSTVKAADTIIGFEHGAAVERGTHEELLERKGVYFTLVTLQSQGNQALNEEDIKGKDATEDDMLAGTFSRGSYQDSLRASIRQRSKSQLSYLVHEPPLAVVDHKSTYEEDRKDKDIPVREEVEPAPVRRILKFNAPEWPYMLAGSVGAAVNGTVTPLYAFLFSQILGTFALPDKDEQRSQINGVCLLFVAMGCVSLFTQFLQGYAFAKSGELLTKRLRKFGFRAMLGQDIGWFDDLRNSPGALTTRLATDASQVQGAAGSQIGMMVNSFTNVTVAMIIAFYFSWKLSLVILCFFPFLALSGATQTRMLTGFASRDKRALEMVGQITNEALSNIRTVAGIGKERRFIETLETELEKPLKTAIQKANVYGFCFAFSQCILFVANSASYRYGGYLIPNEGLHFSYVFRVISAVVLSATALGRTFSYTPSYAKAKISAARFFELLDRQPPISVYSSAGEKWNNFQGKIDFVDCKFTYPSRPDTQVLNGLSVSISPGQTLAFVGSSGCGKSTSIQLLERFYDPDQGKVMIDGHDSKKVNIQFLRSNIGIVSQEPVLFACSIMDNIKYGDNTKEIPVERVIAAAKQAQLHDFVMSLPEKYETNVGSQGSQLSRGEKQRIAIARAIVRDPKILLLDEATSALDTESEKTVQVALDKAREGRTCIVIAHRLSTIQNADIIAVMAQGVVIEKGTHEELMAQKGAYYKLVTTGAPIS
- Procedure text: in vitro
- Test context: monkey, hepatocytes in suspension, probe taurocholate
Attribute measured: inhibition at 1 h, 10 μM

Examples from the recorded data:
{"Molecule": "C=C[C@H]1C[N@@]2CC[C@H]1C[C@@H]2[C@@H](O)c1ccnc2ccc(OC)cc12 [Quinidine, quinidine]", "inhibition at 1 h, 10 μM": "< 50%"}
{"Molecule": "Cc1c(C)c2c(c(C)c1O)CCC(C)(COc1ccc(CC3SC(=O)NC3=O)cc1)O2 (centres unmarked) [Troglitazone, troglitazone]", "inhibition at 1 h, 10 μM": "> 50%"}
{"Molecule": "S=P(N1CC1)(N1CC1)N1CC1 [Thiotepa, thiotepa]", "inhibition at 1 h, 10 μM": "< 50%"}
{"Molecule": "COC(=O)N[C@H](C(=O)N[C@@H](Cc1ccccc1)[C@@H](O)CN(Cc1ccc(-c2ccccn2)cc1)NC(=O)[C@@H](NC(=O)OC)C(C)(C)C)C(C)(C)C [Atazanavir, atazanavir]", "inhibition at 1 h, 10 μM": "> 50%"}

## Input # query: inhibition at 1 h, 10 μM of entry C[C@@H](Oc1cc(-c2cnn(C3CCNCC3)c2)cnc1N)c1c(Cl)ccc(F)c1Cl [Crizotinib, crizotinib]
## Output < 50%

###

- Measurement target: BSEP (Rattus norvegicus, UniProt O70127)
- Sequence (O70127 whole entry): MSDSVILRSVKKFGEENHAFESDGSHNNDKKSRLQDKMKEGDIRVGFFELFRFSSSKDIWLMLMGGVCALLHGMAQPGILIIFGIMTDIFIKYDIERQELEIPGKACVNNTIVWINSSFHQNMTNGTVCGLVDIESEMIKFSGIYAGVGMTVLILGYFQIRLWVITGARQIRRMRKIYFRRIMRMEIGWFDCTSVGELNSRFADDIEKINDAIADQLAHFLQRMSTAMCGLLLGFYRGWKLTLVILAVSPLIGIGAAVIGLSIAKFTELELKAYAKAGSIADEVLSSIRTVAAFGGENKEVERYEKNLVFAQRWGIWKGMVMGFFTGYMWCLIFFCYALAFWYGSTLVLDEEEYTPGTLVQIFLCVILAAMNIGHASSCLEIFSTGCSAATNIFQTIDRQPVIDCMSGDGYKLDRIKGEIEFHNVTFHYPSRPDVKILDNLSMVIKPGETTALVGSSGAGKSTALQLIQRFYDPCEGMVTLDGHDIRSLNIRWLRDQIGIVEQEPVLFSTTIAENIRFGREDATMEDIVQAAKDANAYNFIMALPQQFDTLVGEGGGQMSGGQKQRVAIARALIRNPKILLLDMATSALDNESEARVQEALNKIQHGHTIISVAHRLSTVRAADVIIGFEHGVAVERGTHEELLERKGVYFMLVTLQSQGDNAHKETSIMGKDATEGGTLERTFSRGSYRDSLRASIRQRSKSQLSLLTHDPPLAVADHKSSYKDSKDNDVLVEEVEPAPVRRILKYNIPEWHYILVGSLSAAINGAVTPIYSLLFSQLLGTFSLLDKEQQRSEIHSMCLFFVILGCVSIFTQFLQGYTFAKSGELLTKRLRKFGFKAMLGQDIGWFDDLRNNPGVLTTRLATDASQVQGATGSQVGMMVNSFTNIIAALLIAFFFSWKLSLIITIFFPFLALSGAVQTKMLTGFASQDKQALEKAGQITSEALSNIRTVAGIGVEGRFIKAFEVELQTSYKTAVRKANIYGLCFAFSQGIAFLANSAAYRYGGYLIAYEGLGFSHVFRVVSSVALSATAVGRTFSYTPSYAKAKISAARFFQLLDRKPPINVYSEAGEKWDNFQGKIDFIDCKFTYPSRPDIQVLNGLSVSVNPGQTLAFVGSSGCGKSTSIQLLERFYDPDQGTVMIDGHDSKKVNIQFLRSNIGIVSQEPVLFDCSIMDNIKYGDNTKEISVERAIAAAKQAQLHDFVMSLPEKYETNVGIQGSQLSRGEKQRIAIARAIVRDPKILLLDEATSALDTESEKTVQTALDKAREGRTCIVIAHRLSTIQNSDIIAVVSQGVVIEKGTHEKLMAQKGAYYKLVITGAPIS
- Procedure text: Inhibition of BSEP activity (transport of glycocholate) in rat hepatocytes
- Test context: hepatocytes in suspension, probe glycocholate
Attribute measured: inhibition at 1 h, 10 μM

Answered examples (2):
{"Molecule": "COC(=O)N[C@H](C(=O)N[C@@H](Cc1ccccc1)[C@@H](O)CN(Cc1ccc(-c2ccccn2)cc1)NC(=O)[C@@H](NC(=O)OC)C(C)(C)C)C(C)(C)C [Atazanavir, atazanavir]", "Result": "> 50%"}
{"Molecule": "C=C[C@H]1C[N@@]2CC[C@H]1C[C@@H]2[C@@H](O)c1ccnc2ccc(OC)cc12 [Quinidine, quinidine]", "Result": "< 50%"}

## Input # get_value(readout= inhibition at 1 h, 10 μM, system= BSEP (Rattus norvegicus, UniProt O70127)) for CC[C@]1(O)C[C@@H]2CN(CCc3c([nH]c4ccccc34)[C@@](C(=O)OC)(c3cc4c(cc3OC)N(C)[C@H]3[C@@](O)(C(=O)OC)[C@H](OC(C)=O)[C@]5(CC)C=CCN6CC[C@]43[C@@H]65)C2)C1 [Vinblastine, vinblastine]
## Output > 50%

## Input Give recorded inhibition at 1 h, 10 μM with BSEP (Rattus norvegicus, UniProt O70127) for the following molecule: C[C@@H](Oc1cc(-c2cnn(C3CCNCC3)c2)cnc1N)c1c(Cl)ccc(F)c1Cl [Crizotinib, crizotinib]
## Output > 50%

## Input Give inhibition at 1 h, 10 μM (BSEP (Rattus norvegicus, UniProt O70127)) of the following molecule: CC(C)NCC(O)COc1cccc2ccccc12 (centres unmarked) [Propranolol, propranolol]
## Output < 50%

All figures here come from patent US10481149B2.
